# experimental_details: Substrate specificities of KAZ mutants (ZZ-fused, crude enzyme), 6h-CTZ
# Assay type: biochemical
# measurement_context: 1 μg substrate, integrated for 60 seconds
Can you tell me Relative Luminescence Activity 6h-CTZ Int. for the items I'm about to list?

Using the record for KAZ-V44I-Y138I: KAZ mutant with two amino acid substitutions V44I and Y138I, SEQ ID NO: 12 (protein) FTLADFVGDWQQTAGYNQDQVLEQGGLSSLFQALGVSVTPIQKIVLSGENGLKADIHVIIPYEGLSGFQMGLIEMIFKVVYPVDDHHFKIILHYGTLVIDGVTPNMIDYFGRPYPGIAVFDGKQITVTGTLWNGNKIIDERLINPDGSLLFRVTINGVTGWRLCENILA , report its Relative Luminescence Activity 6h-CTZ Int..
5.3

Using the record for KAZ-V44I: KAZ with single amino acid substitution V44I, SEQ ID NO: 4 (protein) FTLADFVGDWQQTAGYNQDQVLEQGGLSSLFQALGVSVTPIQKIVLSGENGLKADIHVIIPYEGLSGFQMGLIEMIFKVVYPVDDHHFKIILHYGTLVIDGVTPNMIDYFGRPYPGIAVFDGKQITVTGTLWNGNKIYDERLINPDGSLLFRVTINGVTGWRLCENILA , report its Relative Luminescence Activity 6h-CTZ Int..
0.6

Using the record for KAZ-Y138I: KAZ with single amino acid substitution Y138I, SEQ ID NO: 8 (protein) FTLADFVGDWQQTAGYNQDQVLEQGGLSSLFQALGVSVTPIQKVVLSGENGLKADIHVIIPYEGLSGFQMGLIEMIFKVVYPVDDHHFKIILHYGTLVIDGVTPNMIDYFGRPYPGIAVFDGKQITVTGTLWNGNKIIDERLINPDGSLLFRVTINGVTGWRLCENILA , report its Relative Luminescence Activity 6h-CTZ Int..
0.3

Using the record for KAZ-A54I: KAZ with single amino acid substitution A54I, SEQ ID NO: 6 (protein) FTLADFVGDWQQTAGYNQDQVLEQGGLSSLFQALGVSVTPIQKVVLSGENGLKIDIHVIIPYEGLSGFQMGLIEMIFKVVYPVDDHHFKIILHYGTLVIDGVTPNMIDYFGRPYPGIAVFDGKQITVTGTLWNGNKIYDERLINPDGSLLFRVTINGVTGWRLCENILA , report its Relative Luminescence Activity 6h-CTZ Int..
2.1

Using the record for KAZ: wild 19 kDa catalytic protein of Oplophorus luciferase (19kOLase), amino acid sequence SEQ ID NO: 2 (protein, listed as Oplophorus gracilirostris) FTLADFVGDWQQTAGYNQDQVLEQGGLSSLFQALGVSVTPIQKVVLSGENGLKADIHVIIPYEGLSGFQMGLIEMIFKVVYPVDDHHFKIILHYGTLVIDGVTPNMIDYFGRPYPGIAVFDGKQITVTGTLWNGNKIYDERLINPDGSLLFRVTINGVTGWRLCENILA , report its Relative Luminescence Activity 6h-CTZ Int..
0.2

The reported numbers originate from patent US10907134B2.
